Consider the following compounds; for each one, report its inhibition of SARS-CoV-2 cytopathic effect.
- System: Vero E6 infected with SARS-CoV-2
- EXPERIMENT_SUMMARY: inhibition of SARS-CoV-2 cytopathic effect; higher = more antiviral protection, active = above 15
- TEST_CONDITIONS: 1 nM; 48 h
Counter-ions that a name gives are not always drawn.
Give bare numbers, in %.

Completed entries (count: 6):
• CO[C@H]1C[C@H](O[C@H]2CC[C@@]3(C)[C@H](CC[C@@H]4[C@@H]3CC[C@]3(C)[C@@H](C5=CC(=O)OC5)[C@@H](OC(C)=O)C[C@]43O)C2)O[C@@H](C)[C@@H]1O = -3.22
• CC(C)[C@@H](CS(=O)(=O)C(C)C)N1C(=O)[C@@](C)(CC(=O)O)C[C@H](c2cccc(Cl)c2)[C@H]1c1ccc(Cl)cc1 = 2.3
• COc1cc(O)c2c(c1)C(=O)c1cc(C)cc(O)c1C2=O = 1.91
• COc1cccc2c1C(=O)c1c(O)c3c(c(O)c1C2=O)C[C@@](O)(C(=O)CO)C[C@@H]3O[C@H]1C[C@H](N)[C@@H](O)[C@H](C)O1 [Epirubicin Hydrochloride] = 1.23
• CC(C)(C)NC[C@H](O)COc1nsnc1N1CCOCC1 = -1.77
• OCCCNc1cc(-c2ccnc(Nc3cccc(Cl)c3)n2)ccn1 = 1.32

# batch: return inhibition of SARS-CoV-2 cytopathic effect for each of the 6 compounds below
1. Cc1cc(NC(=O)Nc2ccc(F)c(F)c2)n(-c2ccccc2)n1
2. COc1cc2nc(C3CC3)nc(N3CCN(c4ccccc4OC)CC3)c2cc1OC
3. COc1cc2c(Oc3ccc(NC(=O)C4(C(=O)Nc5ccc(F)cc5)CC4)cc3F)ccnc2cc1OCCCN1CCOCC1
4. CCN1CCN(Cc2ccc(-c3cc4c(N[C@H](C)c5ccccc5)ncnc4[nH]3)cc2)CC1
5. Nc1nc(OCc2cc(Br)cs2)c2[nH]cnc2n1
6. CCCCOc1ccc(CC(=O)NO)cc1

A)
1. -0.5
2. -1.86
3. -0.07
4. 1.55
5. -1
6. 0.27

* * *

- System: Vero E6 infected with SARS-CoV-2
- EXPERIMENT_SUMMARY: inhibition of SARS-CoV-2 cytopathic effect; higher = more antiviral protection, active = above 15
- TEST_CONDITIONS: 100 nM; 48 h
OBSERVED_PROPERTY: inhibition of SARS-CoV-2 cytopathic effect (%)
Give bare numbers, in %.

Below, 3 compounds whose answers are already recorded.
* CN(C(=O)CN1C(=O)COc2cc(Cl)c(Cl)cc21)[C@@H](CN1CCCC1)c1ccc(-c2cccc(C(N)=O)c2)cc1 | 3.9
* COC(=O)Nc1ccc(-c2nc(N3CCOCC3)c3cnn(C4CCN(Cc5cccnc5)CC4)c3n2)cc1 | 3.87
* CCC1=C[C@@H]2CN(C1)Cc1c([nH]c3ccccc13)[C@@](C(=O)OC)(c1cc3c(cc1OC)N(C)[C@H]1[C@@](O)(C(=O)OC)[C@H](OC(C)=O)[C@]4(CC)C=CCN5CC[C@]31[C@@H]54)C2 | -1.35

Quick one: give me inhibition of SARS-CoV-2 cytopathic effect for each item below, same order please.
1. O=C(O)c1ccc(NC(=O)[C@H](Cc2ccc(O)cc2)NC(=O)c2ccccc2)cc1 [bentiromide]
2. Cn1cccc1/C=C1\C(=O)NC(=O)c2ccccc21
3. CCS(=O)(=O)N1CCC[C@@H]2CN3CCc4cc(OC)ccc4[C@@H]3C[C@@H]21
4. CC(C)CCN1c2nc(Nc3cc(F)c(O)c(F)c3)ncc2N(C)C(=O)[C@@H]1C
5. O=C(Oc1cc(S(=O)(=O)c2ccccc2)ccc1[N+](=O)[O-])c1ccc(Cl)cc1

A)
-1.51
-1.24
0.02
-6.09
-2.99
